Could you please report measured inhibition for the items listed next?
Molecular target: Tyrosine-protein phosphatase non-receptor type 1 (Homo sapiens)
Assay: Inhibition of PTP1B (unknown origin) at 0.1 ug/ml relative to control
Details: dose 0.1 µg/ml
Answers are plain numbers, in %.

For orientation, consider the following solved cases.
[[record]]
smiles_str = "O=c1cc(-c2ccc(O[C@@H]3O[C@H](CO)[C@@H](O)[C@H](O)[C@H]3O)c(O)c2)oc2cc(O)ccc12"
endpoint = "inhibition"
observed_result = 68.9

[[record]]
smiles_str = "O=c1cc(-c2ccc(O)c(O)c2)oc2cc(O[C@@H]3O[C@H](CO)[C@@H](O)[C@H](O)[C@H]3O)ccc12"
endpoint = "inhibition"
observed_result = 68.9

[[record]]
smiles_str = "COc1cc(/C=C/C(=O)OC[C@H]2O[C@@H](Oc3ccc4c(=O)c(-c5ccc(O)c(O)c5)coc4c3)[C@H](O)[C@@H](O)[C@@H]2O)ccc1O"
endpoint = "inhibition"
observed_result = 95.2

[[record]]
smiles_str = "O=C(/C=C/c1ccc(O)c(O)c1)OC[C@H]1O[C@@H](Oc2ccc3c(=O)c(-c4ccc(O)cc4)coc3c2)[C@H](O)[C@@H](O)[C@@H]1O"
endpoint = "inhibition"
observed_result = 81.6

[[record]]
smiles_str = "O=c1c(-c2ccc(O)cc2)coc2cc(O[C@@H]3O[C@H](CO[C@@H]4OC[C@@H](O)[C@H](O)[C@H]4O)[C@@H](O)[C@H](O)[C@H]3O)cc(O)c12"
endpoint = "inhibition"
observed_result = 88.8


Reported inhibition ( "COc1cc(O)c2c(=O)c(-c3ccc(O)c(OC)c3)coc2c1" ) = 70.1

---

Answer each item with its documented IC50.
Test system: C2C12
Assay: Cytotoxicity against mouse C2C12 cells assessed as reduction in cell viability by MTT assay
Format: cell-based
Settings: Mus musculus, C2C12
Answer format: number, then unit.

Solved cases below.
[[record]]
compound = "O=c1c(O)c(-c2ccc(O)c(O)c2)oc2cc(O)cc(O)c12 [QUERCETIN]"
endpoint = "IC50"
observed_result = "30.8 mg/L"

[[record]]
compound = "O=C(/C=C/c1ccc(O)c(O)c1)c1ccc(O[C@@H]2O[C@H](CO)[C@@H](O)[C@H](O)[C@H]2O)cc1O"
endpoint = "IC50"
observed_result = "20.8 mg/L"

[[record]]
compound = "O=c1cc(-c2ccc(O)cc2)oc2cc(O)cc(O)c12 [APIGENIN]"
endpoint = "IC50"
observed_result = "26.6 mg/L"


# batch: return IC50 for each of the 4 compounds below
1. O=C(/C=C/c1ccc(O)c(O)c1)OC[C@H]1O[C@@H](Oc2ccc3c(=O)c(-c4ccc(O)cc4)coc3c2)[C@H](O)[C@@H](O)[C@@H]1O
2. O=c1c(-c2ccc3c(c2)OCO3)coc2cc(O[C@@H]3O[C@H](CO)[C@@H](O)[C@H](O)[C@H]3O)ccc12
3. COc1ccc(-c2cc(=O)c3c(O)cc(O[C@@H]4O[C@H](CO[C@@H]5O[C@@H](C)[C@H](O)[C@@H](O)[C@H]5O)[C@@H](O)[C@H](O)[C@H]4O)cc3o2)cc1O [DIOSMIN]
4. O=C(/C=C/c1ccc(O)c(O)c1)c1ccc(O)cc1O [BUTEIN]

Data returned:
1. 31.2 mg/L
2. 13.5 mg/L
3. 20 mg/L
4. 19 mg/L

---

Please provide measured IC10 for the entries that follow.
Test system: C2C12
Assay: Cytotoxicity against mouse C2C12 cells assessed as reduction in cell viability by MTT assay
Format: cell-based
Details: mouse, c2c12
Answers are plain numbers, in µg/mL.

[[record]]
molecule = "O=C(/C=C/c1ccc(O)c(O)c1)OC[C@H]1O[C@@H](Oc2ccc3c(=O)c(-c4ccc(O)cc4)coc3c2)[C@H](O)[C@@H](O)[C@@H]1O"
experimental_target = "C2C12"
display_unit = "µg/mL"
observed_result = 8.81

[[record]]
molecule = "COc1cc(/C=C/C(=O)OC[C@H]2O[C@@H](Oc3ccc4c(=O)c(-c5ccc(O)c(O)c5)coc4c3)[C@H](O)[C@@H](O)[C@@H]2O)ccc1O"
experimental_target = "C2C12"
display_unit = "µg/mL"
observed_result = 7.36

[[record]]
molecule = "COc1cc(O)c2c(=O)c(-c3ccc(O)c(OC)c3)coc2c1"
experimental_target = "C2C12"
display_unit = "µg/mL"
observed_result = 6.93


Could you tell me IC10 for each of these molecules? They are listed below.
1. O=c1c(O)c(-c2ccc(O)c(O)c2)oc2cc(O)cc(O)c12
2. O=C(/C=C/c1ccccc1)c1ccc(O)cc1O [2',4'-DIHYDROXYCHALCONE]
3. O=C(/C=C/c1ccc(O)cc1)c1ccc(O)cc1O
4. O=c1cc(-c2ccc(O[C@@H]3O[C@H](CO)[C@@H](O)[C@H](O)[C@H]3O)c(O)c2)oc2cc(O)ccc12
5. O=c1c(-c2ccc3c(c2)OCO3)coc2cc(O)ccc12

Data returned:
1: 9.23; 2: 6.14; 3: 7.43; 4: 5.85; 5: 3.49

---

Tested on: C2C12
Assay: Cytotoxicity against mouse C2C12 cells assessed as reduction in cell viability by MTT assay
Assay type: cell-based
Settings: Mus musculus, C2C12
endpoint: IC50 (µg/mL)
Answers are plain numbers, in µg/mL.

[[record]]
compound = "COc1cc(O)c2c(=O)c(-c3ccc(O)cc3)coc2c1"
observed_result = 23.2

[[record]]
compound = "O=c1c(-c2ccc(O)cc2)coc2cc(O[C@@H]3O[C@H](CO[C@@H]4OC[C@@H](O)[C@H](O)[C@H]4O)[C@@H](O)[C@H](O)[C@H]3O)cc(O)c12"
observed_result = 34.2

[[record]]
compound = "O=C(/C=C/c1ccccc1)c1ccc(O)cc1O [2',4'-DIHYDROXYCHALCONE]"
observed_result = 32.3


Can you give me IC50 for all of these, one by one?
1. COc1cc(O)c2c(=O)c(-c3ccc(O)c(OC)c3)coc2c1
2. O=C(/C=C/c1ccc(O)cc1)c1ccc(O)cc1O
3. O=c1cc(-c2ccc(O[C@@H]3O[C@H](CO)[C@@H](O)[C@H](O)[C@H]3O)c(O)c2)oc2cc(O)ccc12
4. O=c1cc(-c2ccc(O)c(O)c2)oc2cc(O[C@@H]3O[C@H](CO)[C@@H](O)[C@H](O)[C@H]3O)ccc12

Data returned:
1: 32.5; 2: 26.3; 3: 29; 4: 40

// batch mode: one IC50 value per listed entry
1. O=c1c(-c2ccc3c(c2)OCO3)coc2cc(O)ccc12
2. COc1cc(/C=C/C(=O)OC[C@H]2O[C@@H](Oc3ccc4c(=O)c(-c5ccc(O)c(O)c5)coc4c3)[C@H](O)[C@@H](O)[C@@H]2O)ccc1O

Data returned:
1: 12.1; 2: 24.3

---

Tested on: C2C12
Assay: Cytotoxicity against mouse C2C12 cells assessed as reduction in cell viability by MTT assay
Type: cell-based
Conditions: mouse, c2c12
Give measured IC10 for each item. Keep answers brief.
Answers are plain numbers, in µg/mL.

Sample answers from the record:
[[record]]
smiles_str = "O=c1c(-c2ccc3c(c2)OCO3)coc2cc(O[C@@H]3O[C@H](CO)[C@@H](O)[C@H](O)[C@H]3O)ccc12"
observed_result = 4.18

[[record]]
smiles_str = "O=c1c(-c2ccc(O)cc2)coc2cc(O[C@@H]3O[C@H](CO[C@@H]4OC[C@@H](O)[C@H](O)[C@H]4O)[C@@H](O)[C@H](O)[C@H]3O)cc(O)c12"
observed_result = 6.07

[[record]]
smiles_str = "COc1cc(O)c2c(=O)c(-c3ccc(O)cc3)coc2c1"
observed_result = 7.19

[[record]]
smiles_str = "COc1ccc(-c2cc(=O)c3c(O)cc(O[C@@H]4O[C@H](CO[C@@H]5O[C@@H](C)[C@H](O)[C@@H](O)[C@H]5O)[C@@H](O)[C@H](O)[C@H]4O)cc3o2)cc1O"
observed_result = 5.14

[[record]]
smiles_str = "O=C(/C=C/c1ccc(O)c(O)c1)c1ccc(O)cc1O"
observed_result = 3.99


For each listed entry, give its IC10.
1. O=C(/C=C/c1ccc(O)c(O)c1)c1ccc(O[C@@H]2O[C@H](CO)[C@@H](O)[C@H](O)[C@H]2O)cc1O
2. O=c1cc(-c2ccc(O)c(O)c2)oc2cc(O[C@@H]3O[C@H](CO)[C@@H](O)[C@H](O)[C@H]3O)ccc12
3. O=c1cc(-c2ccc(O)cc2)oc2cc(O)cc(O)c12

Data returned:
1. 4.39
2. 10.07
3. 4.96
